These measurements were taken from patent US20220017541A1.

In this section, each of the molecules is paired with its reported IC50.
Target: recombinant human ARG2 (Homo sapiens, UniProt P78540)
Sequence (P78540 23-354): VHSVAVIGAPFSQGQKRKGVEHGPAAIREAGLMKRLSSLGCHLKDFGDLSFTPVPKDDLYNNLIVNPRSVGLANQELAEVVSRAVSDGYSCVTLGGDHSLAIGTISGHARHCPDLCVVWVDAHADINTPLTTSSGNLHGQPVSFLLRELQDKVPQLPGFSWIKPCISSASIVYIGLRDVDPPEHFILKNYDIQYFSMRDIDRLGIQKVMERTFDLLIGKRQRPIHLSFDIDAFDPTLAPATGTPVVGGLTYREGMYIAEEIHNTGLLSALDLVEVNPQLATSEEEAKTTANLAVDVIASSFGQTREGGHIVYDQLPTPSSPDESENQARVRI
Assay: Arginase enzymatic assay in vitro, recombinant human ARG2 (colorimetric urea detection)
Conditions: recombinant human arginase 2; read-out: IC50 Inh rhARG2

The following molecules have reported results that may help.
| MOLECULE | IC50 |
| --- | --- |
| CC(c1ccccc1)N1CCC(C(N)(CCCCB(O)O)C(=O)O)CC1 (single isomer, unassigned) [Compound 10] | < 0.5 µM |
| NC(CCCCB(O)O)(C(=O)O)C1CCN(C2CCc3ccc(C(F)(F)F)cc32)CC1 (single isomer, unassigned) [Compound 35] | < 0.5 µM |
| NC(CCCCB(O)O)(C(=O)O)C1CCN(C2CCc3cc(Cl)ccc32)CC1 (single isomer, unassigned) [Compound 14] | < 0.5 µM |

// IC50 lookup, key: CCCC(c1ccccc1)N1CCC(C(N)(CCCCB(O)O)C(=O)O)CC1 (single isomer, unassigned) [Compound 90]
0.5 to 5 µM
